Molecular target: T1, rhNav1.7α + β1-β2-β3 (rhesus monkey)
T1 construct: also called rhNav1.7-beta1-beta2-beta3; rhesus Nav1.7α
Test: binding FACS, CHO FlpIn cells
quantity measured: Bmax (%)
Provide only the numeric value, understood in %.

Here's what some known entries look like.
F010302363 (VHH) VHH: EVQLVESGGGVVQPGGSLRLSCAASHRAFIRDVFTGWYRQAPGKQRELVARIYEGGNTQYADSVKGRFTISRDNAKKTVYLQMNSLRPEDTALYYCLFSGTISTGREYRSGDYWGQGTLVTVSS	96
F010302362 (VHH) VHH: EVQLVESGGGVVQPGGSLRLSCAASHRAFIRDVFTGWYRQAPGKQRELVARIYESGNTQYADSVKGRFTISRDNAKKTVYLQMNSLRPEDTALYYCLFSGTISTGREYRSGDYWGQGTLVTVSS	89
F010301867 (VHH, A28Q vs F0103464B09 (Kabat)) VHH: EVQLVESGGGLVQPGGSLRLSCATTSRQFIRDVFTGWYRRVPGKERELVARIYNGGNTNYADFAKGRFSISRDNAKKMVTLRMSNLKPEDTGVYYCLFSGTINTGREYRSGDYWGQGTLVTVSS	74
F010301889 (VHH, S95A vs F0103464B09 (Kabat)) VHH: EVQLVESGGGLVQPGGSLRLSCATTSRAFIRDVFTGWYRRVPGKERELVARIYNGGNTNYADFAKGRFSISRDNAKKMVTLRMSNLKPEDTGVYYCLFAGTINTGREYRSGDYWGQGTLVTVSS	92
F010302359 (VHH) VHH: EVQLVESGGGVVQPGGSLRLSCAASSRQFIRDVFTGWYRQAPGKQRELVARIYESGNTQYADSVKGRFTISRDNAKKTVYLQMNSLRPEDTALYYCLFSGTISTGREYRSGDYWGQGTLVTVSS	66
F010302340 (VHH) VHH: EVQLVESGGGVVQPGGSLRLSCAASHRAFIRDLFTGWYRRAPGKQRELVARIYESGNTNYADSAKGRFTISRDNAKKTVYLQMNSLRPEDTALYYCLFSGTISTGREYRSGDYWGQGTLVTVSS	96
F010302355 (VHH) VHH: EVQLVESGGGVVQPGGSLRLSCAASHRAFIRDVFTGWYRRAPGKQRELVARIYEGGNTQYADSVKGRFTISRDNAKKTVYLQMNSLRPEDTALYYCLFSGTISTGREYRSGDYWGQGTLVTVSS	97
F010302344 (VHH) VHH: EVQLVESGGGVVQPGGSLRLSCAASHRQFIRDVFTGWYRQAPGKQRELVARIYNEGNTQYADSAKGRFTISRDNAKKTVYLQMNSLRPEDTALYYCLFSGTISTGREYRSGDYWGQGTLVTVSS	78

Item under review: F010302342 (VHH) VHH: EVQLVESGGGVVQPGGSLRLSCAASSRQFIRDVFTGWYRQAPGKQRELVARIYNEGNTQYADSAKGRFTISRDNAKKTVYLQMNSLRPEDTALYYCLFSGTISTGREYRSGDYWGQGTLVTVSS . Reported Bmax?
61

Item under review: F010302346 (VHH) VHH: EVQLVESGGGVVQPGGSLRLSCAASHRAFIRDVFTGWYRQAPGKQRELVARIYESGNTQYADSAKGRFTISRDNAKKTVYLQMNSLRPEDTALYYCLFSGTISTGREYRSGDYWGQGTLVTVSS . Reported Bmax?
99
